STUDY_SYSTEM: DR2b (DRB1*15:01) (Homo sapiens, UniProt P01903+P01911)
Construct: Soluble DRB1*15:01 and DRB5*01:01 with a covalently linked CLIP peptides; covalently linked CLIP peptide (3C-protease-cleavable linker) (cleaved yes)
EXPERIMENT_SUMMARY: fluorescence polarization competition binding assay, DR2b
COND: mean of two independent experiments
pIC50: −log10 of the molar value.
Label Satisfied when pIC50 is at or above 6; anything below gets Not satisfied.

Consider the following illustrative entries.
*Q* Is the recorded value of pIC50 equal to or greater than 6 for this compound? CC[C@H](C)[C@H](NC(=O)[C@@H](NC(=O)CNC(=O)[C@H](CC(N)=O)NC(=O)[C@H](CCC(=O)O)NC(=O)[C@H](CC(N)=O)NC(=O)[C@H](Cc1ccc(O)cc1)NC(=O)[C@H](CCCCN)NC(=O)[C@H](CC(C)C)NC(=O)[C@@H](N)CC(C)C)[C@@H](C)O)C(=O)N[C@H](C(=O)N[C@@H](CC(=O)O)C(=O)N[C@@H](C)C(=O)N[C@H](C(=O)N[C@@H](CC(=O)O)C(=O)N[C@@H](CS)C(=O)O)C(C)C)[C@@H](C)O [S#56 (CoV2)]
*A* Not satisfied

*Q* Is the recorded value of pIC50 equal to or greater than 6 for this compound? CC[C@H](C)[C@H](NC(=O)[C@H](CC(C)C)NC(=O)[C@H](CCC(N)=O)NC(=O)[C@H](CCC(N)=O)NC(=O)[C@@H](NC(=O)[C@@H](NC(=O)[C@H](Cc1ccc(O)cc1)NC(=O)[C@@H](NC(=O)[C@H](CCC(N)=O)NC(=O)[C@H](CC(C)C)NC(=O)[C@H](CO)NC(=O)[C@H](CCC(N)=O)NC(=O)[C@@H](N)CC(C)C)[C@@H](C)O)C(C)C)[C@@H](C)O)C(=O)N[C@@H](CCCNC(=N)N)C(=O)N[C@@H](C)C(=O)O [Peptide P11.CoV2]
*A* Satisfied

*Q* Is the recorded value of pIC50 equal to or greater than 6 for this compound? CC[C@H](C)[C@H](NC(=O)CNC(=O)[C@H](CC(N)=O)NC(=O)[C@@H](NC(=O)[C@H](Cc1ccccc1)NC(=O)[C@@H](N)CC(=O)O)[C@@H](C)CC)C(=O)N[C@@H](Cc1ccccc1)C(=O)N[C@@H](C)C(=O)N[C@@H](CCCCN)C(=O)N[C@H](C(=O)N[C@@H](CCCCN)C(=O)N[C@@H](CC(N)=O)C(=O)N[C@H](C(=O)N[C@@H](CCCCN)C(=O)N[C@H](C(=O)N[C@H](C(=O)N[C@@H](CCCCN)C(=O)O)[C@@H](C)CC)C(C)C)[C@@H](C)O)C(C)C [Peptide P12]
*A* Not satisfied

*Q* Is the recorded value of pIC50 equal to or greater than 6 for this compound? CC[C@H](C)[C@H](NC(=O)[C@@H](NC(=O)CNC(=O)[C@H](CC(N)=O)NC(=O)[C@H](CCC(=O)O)NC(=O)[C@H](CC(N)=O)NC(=O)[C@H](Cc1ccc(O)cc1)NC(=O)[C@H](CCCCN)NC(=O)[C@H](CC(C)C)NC(=O)[C@H](CC(C)C)NC(=O)[C@H](Cc1ccccc1)NC(=O)[C@@H](NC(=O)[C@H](CCCNC(=N)N)NC(=O)[C@@H]1CCCN1C(=O)[C@@H](N)CCC(N)=O)[C@@H](C)O)[C@@H](C)O)C(=O)N[C@H](C(=O)O)[C@@H](C)O [S#55 (CoV2)]
*A* Not satisfied

*Q* Is the recorded value of pIC50 equal to or greater than 6 for this compound? CC(C)C[C@H](NC(=O)[C@H](C)NC(=O)[C@H](C)NC(=O)[C@@H](N)CC(C)C)C(=O)N[C@@H](CC(N)=O)C(=O)N[C@H](C(=O)N[C@@H](Cc1ccccc1)C(=O)N[C@H](C(=O)N[C@@H](CO)C(=O)N[C@@H](Cc1c[nH]cn1)C(=O)N[C@H](C(=O)N[C@@H](CC(C)C)C(=O)N[C@H](C(=O)N[C@@H](CCCCN)C(=O)N[C@@H](Cc1ccc(O)cc1)C(=O)O)[C@@H](C)O)[C@@H](C)O)C(C)C)C(C)C [Peptide P11.229E]
*A* Satisfied

*Q* Is the recorded value of pIC50 equal to or greater than 6 for this compound? CC(C)[C@H](NC(=O)[C@H](CC(N)=O)NC(=O)CNC(=O)CNC(=O)[C@H](CO)NC(=O)[C@@H]1CCCN1)C(=O)N[C@H](C(=O)N1CCC[C@H]1C(=O)N[C@@H](Cc1ccc(O)cc1)C(=O)N[C@@H](Cc1ccc(O)cc1)C(=O)N[C@@H](CO)C(=O)N[C@@H](Cc1c[nH]c2ccccc12)C(=O)N[C@@H](Cc1ccccc1)C(=O)N[C@@H](CO)C(=O)NCC(=O)O)C(C)C [Peptide P10]
*A* Satisfied

Kindly review the next compound as well.
*Q* Is the recorded value of pIC50 equal to or greater than 6 for this compound? CC[C@H](C)[C@H](NC(=O)[C@H](CC(=O)O)NC(=O)[C@H](CO)NC(=O)[C@H](CC(C)C)NC(=O)[C@H](CCC(N)=O)NC(=O)[C@H](CCC(N)=O)NC(=O)[C@H](CO)NC(=O)[C@@H](NC(=O)[C@H](Cc1ccc(O)cc1)NC(=O)[C@H](C)NC(=O)[C@H](CC(N)=O)NC(=O)[C@H](CC(C)C)NC(=O)[C@H](C)NC(=O)[C@@H](NC(=O)[C@@H](N)CC(C)C)[C@@H](C)O)C(C)C)C(=O)O [Peptide P11.HKU1]
*A* Satisfied
